- ASSAYED SYSTEM: T1, human LAP-TGFB1 Fc fusion (human)
- T1 construct: also called human LAP-TGFβ1-Fc; human LAP-TGFβ-Fc isoform 1
- T1 sequence (chain, as listed by the source limits assumed): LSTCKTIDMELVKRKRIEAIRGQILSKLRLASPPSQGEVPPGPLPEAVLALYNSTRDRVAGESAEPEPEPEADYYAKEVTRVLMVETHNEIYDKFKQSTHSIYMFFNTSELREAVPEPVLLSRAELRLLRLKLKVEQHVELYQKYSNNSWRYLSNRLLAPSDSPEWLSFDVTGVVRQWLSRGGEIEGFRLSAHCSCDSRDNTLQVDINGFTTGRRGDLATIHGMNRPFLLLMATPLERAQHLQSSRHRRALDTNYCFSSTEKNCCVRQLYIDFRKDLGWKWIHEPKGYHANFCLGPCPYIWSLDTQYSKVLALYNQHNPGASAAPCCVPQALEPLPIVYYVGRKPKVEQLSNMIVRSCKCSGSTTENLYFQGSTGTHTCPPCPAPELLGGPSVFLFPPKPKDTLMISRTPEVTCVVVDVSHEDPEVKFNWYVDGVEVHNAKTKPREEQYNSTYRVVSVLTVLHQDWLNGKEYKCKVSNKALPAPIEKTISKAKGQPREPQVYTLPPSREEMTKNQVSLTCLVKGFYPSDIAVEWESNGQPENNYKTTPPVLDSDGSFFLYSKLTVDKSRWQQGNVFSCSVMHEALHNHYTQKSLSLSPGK
- TEST PROTOCOL: SPR, antigen-Fc captured, Fab analyte
- Procedure: This Example describes the isoform specificity of the yeast display mutants to bind to human LAP-TGFβ isoforms 1, 2, and 3 using surface plasmon resonance. […] Binding rate constants were determined by fitting the data with a 1:1 binding model (GE Healthcare Biacore T200 Evaluation software 3.0).
MEASUREMENT KIND: Fold improvement in KD (fold)
Give a bare numeral; the unit fold is implied.

Illustrative cases are given below, each with its answer.
>>> experimental_value("58BJN (Fab, V domains shown, also called VH W33D W99Y Y101H / VL T30Y (58BJN)) VH: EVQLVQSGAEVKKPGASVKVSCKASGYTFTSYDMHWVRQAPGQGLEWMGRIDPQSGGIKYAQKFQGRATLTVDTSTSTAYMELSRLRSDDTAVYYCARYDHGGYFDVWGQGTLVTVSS VL: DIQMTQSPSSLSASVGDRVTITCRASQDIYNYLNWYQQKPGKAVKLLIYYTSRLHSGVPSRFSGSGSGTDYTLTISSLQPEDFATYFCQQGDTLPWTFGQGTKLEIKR")
13
>>> experimental_value("71BJN (Fab, V domains shown, also called VH W33D S55T G57D Y104Q / VL T30Y R53G (71BJN)) VH: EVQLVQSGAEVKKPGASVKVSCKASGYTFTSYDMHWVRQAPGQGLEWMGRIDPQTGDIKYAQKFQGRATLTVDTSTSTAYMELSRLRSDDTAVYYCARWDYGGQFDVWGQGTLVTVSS VL: DIQMTQSPSSLSASVGDRVTITCRASQDIYNYLNWYQQKPGKAVKLLIYYTSGLHSGVPSRFSGSGSGTDYTLTISSLQPEDFATYFCQQGDTLPWTFGQGTKLEIKR")
3200

Now let's try a different one.
Recorded Fold improvement in KD for 55BJN (Fab, V domains shown, also called VH W33D M34I / VL (55BJN)) VH: EVQLVQSGAEVKKPGASVKVSCKASGYTFTSYDIHWVRQAPGQGLEWMGRIDPQSGGIKYAQKFQGRATLTVDTSTSTAYMELSRLRSDDTAVYYCARWDYGGYFDVWGQGTLVTVSS VL: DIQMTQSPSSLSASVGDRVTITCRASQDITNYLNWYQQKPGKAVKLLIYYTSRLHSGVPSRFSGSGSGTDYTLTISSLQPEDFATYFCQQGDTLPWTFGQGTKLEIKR , please?
3
